The reported numbers originate from the supplement of paper PMC4862054.

# System: CAL-85-1
# Condition: 72 h
Form field: EC50, CellTiter-Blue viability (one value per entry).

CC(=O)[C@]1(O)Cc2c(O)c3c(c(O)c2[C@@H](O[C@H]2C[C@H](N)[C@H](O)[C@H](C)O2)C1)C(=O)c1ccccc1C3=O    240 nM
COc1cc(Nc2c(C#N)cnc3cc(OCCCN4CCN(C)CC4)c(OC)cc23)c(Cl)cc1Cl    3180 nM
COc1ccc(S(=O)(=O)Nc2cccnc2Nc2ccc(O)cc2)cc1    290 nM
CO[C@@H]1[C@H](N(C)C(=O)c2ccccc2)C[C@H]2O[C@]1(C)n1c3ccccc3c3c4c(c5c6ccccc6n2c5c31)C(=O)NC4    314 nM

Please find the next compound below.
The reported EC50, CellTiter-Blue viability value, CAL-85-1, for Nc1ccn([C@@H]2O[C@H](CO)[C@@H](O)C2(F)F)c(=O)n1 reads 87.4 nM

====

# Tested on: HCC1599
# Experiment notes: normalised response (% of control), CellTiter-Glo; higher = more viable cells (100 = DMSO, 0 = benzethonium chloride kill control)
# Condition: incubation time: 72 h
Form field: normalised response (one value per entry).
Expressed in %, but write only the number.

O=C(CCCCCCC(=O)Nc1ccccc1)NO [Vorinostat] (10000 nM)    8.35
CC1(COc2ccc3c(c2)ncn3-c2ccc3cccc(N4CCC(N)CC4)c3n2)COC1 [Crenolanib] (10000 nM)    60.6

Please find the next compound below.
The compound listed as CC(C)C[C@H](NC(=O)[C@@H](COC(C)(C)C)NC(=O)[C@H](Cc1ccc(O)cc1)NC(=O)[C@H](CO)NC(=O)[C@H](Cc1c[nH]c2ccccc12)NC(=O)[C@H](Cc1cnc[nH]1)NC(=O)[C@@H]1CCC(=O)N1)C(=O)N[C@@H](CCCNC(=N)N)C(=O)N1CCC[C@H]1C(=O)NNC(N)=O [Goserelin] (10000 nM) has a reported normalised response of 97.5

====

# System: SK-BR-3
# Experiment notes: normalised response (% of control), CellTiter-Glo; higher = more viable cells (100 = DMSO, 0 = benzethonium chloride kill control)
# Condition: incubation time: 72 h
Readout label: normalised response
Put down the number, then write its unit next to it.

CC(C)(C)NC(=O)[C@H]1CC[C@H]2[C@@H]3CC[C@H]4NC(=O)C=C[C@]4(C)[C@H]3CC[C@]12C [Finasteride] (10000 nM)    94.4%
C=CCn1c(=O)c2cnc(Nc3ccc(N4CCN(C)CC4)cc3)nc2n1-c1cccc(C(C)(C)O)n1 [MK1775] (10000 nM)    8.92%
O=C(CCCCCCC(=O)Nc1ccccc1)NO [Vorinostat] (10000 nM)    14.1%
CC1(C)CCC(c2ccc(Cl)cc2)=C(CN2CCN(c3ccc(C(=O)NS(=O)(=O)c4ccc(N[C@H](CCN5CCOCC5)CSc5ccccc5)c(S(=O)(=O)C(F)(F)F)c4)cc3)CC2)C1 [Navitoclax] (10000 nM)    73.2%
CC(C)C[C@H](NC(=O)[C@@H](COC(C)(C)C)NC(=O)[C@H](Cc1ccc(O)cc1)NC(=O)[C@H](CO)NC(=O)[C@H](Cc1c[nH]c2ccccc12)NC(=O)[C@H](Cc1cnc[nH]1)NC(=O)[C@@H]1CCC(=O)N1)C(=O)N[C@@H](CCCNC(=N)N)C(=O)N1CCC[C@H]1C(=O)NNC(N)=O [Goserelin] (10000 nM)    102%
CC(C)(C)c1nc(-c2cccc(NS(=O)(=O)c3c(F)cccc3F)c2F)c(-c2ccnc(N)n2)s1 [Dabrafenib] (2500 nM)    80.8%
O=C(O)CNC(=O)c1c(O)c2ccccc2n(Cc2ccccc2)c1=O [IOX-2] (50000 nM)    94%
Cc1nc(C(=O)NCC(=O)O)c(O)c2ccc(Oc3ccccc3)cc12 [FG-4592] (10000 nM)    101%
COc1ccc(S(=O)(=O)Nc2cccnc2Nc2ccc(O)cc2)cc1 [ABT-751] (10000 nM)    12.3%
CCNC(=O)CCC/C=C\C[C@@H]1[C@@H](/C=C/[C@@H](O)CCc2ccccc2)[C@H](O)C[C@@H]1O [Bimatoprost] (5500 nM)    83.8%

The compound listed as Cn1cc(C2=C(c3cn(C4CCN(Cc5ccccn5)CC4)c4ccccc34)C(=O)NC2=O)c2ccccc21 [Enzastaurin] (10000 nM) has a reported normalised response of 85.6%

The compound listed as Cc1cn(-c2cc(NC(=O)c3ccc(C)c(Nc4nccc(-c5cccnc5)n4)c3)cc(C(F)(F)F)c2)cn1 [Nilotinib] (10000 nM) has a reported normalised response of 99.4%

====

# System: HCC1143
# Experiment notes: normalised viability (% of control), CellTiter-Blue; higher = more viable cells (100 = DMSO, 0 = benzethonium chloride kill control)
# Condition: incubation time: 72 h
Readout label: normalised viability (%)
Expressed in %, but write only the number.

Completed entries (count: 6):
C/C(=C\c1csc(C)n1)[C@@H]1C[C@@H]2O[C@]2(C)CCC[C@H](C)[C@H](O)[C@@H](C)C(=O)C(C)(C)[C@@H](O)CC(=O)N1 [Ixabepilone] (0.1 nM)    80.9
CO[C@@H]1[C@H](N(C)C(=O)c2ccccc2)C[C@H]2O[C@]1(C)n1c3ccccc3c3c4c(c5c6ccccc6n2c5c31)C(=O)NC4 [Midostaurin] (1 nM)    129
COc1ccc(S(=O)(=O)Nc2cccnc2Nc2ccc(O)cc2)cc1 [ABT-751] (1 nM)    95.5
COc1cc(Nc2c(C#N)cnc3cc(OCCCN4CCN(C)CC4)c(OC)cc23)c(Cl)cc1Cl [Bosutinib] (1 nM)    94
CCNC(=O)c1noc(-c2cc(C(C)C)c(O)cc2O)c1-c1ccc(CN2CCOCC2)cc1 [NVP-AUY922] (0.1 nM)    121
CC(C)C[C@H](NC(=O)[C@@H](COC(C)(C)C)NC(=O)[C@H](Cc1ccc(O)cc1)NC(=O)[C@H](CO)NC(=O)[C@H](Cc1c[nH]c2ccccc12)NC(=O)[C@H](Cc1cnc[nH]1)NC(=O)[C@@H]1CCC(=O)N1)C(=O)N[C@@H](CCCNC(=N)N)C(=O)N1CCC[C@H]1C(=O)NNC(N)=O [Goserelin] (1 nM)    94.3

Please find the next compound below.
The compound listed as CN(Cc1cnc2nc(N)nc(N)c2n1)c1ccc(C(=O)N[C@@H](CCC(=O)O)C(=O)O)cc1 [Methotrexate] (1 nM) has a reported normalised viability of 95.6

====

# Test system: HCC1143
# Experiment notes: normalised response (% of control), CellTox Green; higher = less cell death (100 = DMSO, 0 = benzethonium chloride kill control)
# Condition: incubation time: 72 h
Readout label: normalised response (%)
Expressed in %, but write only the number.

Completed entries (count: 5):
CC[C@H](CO)Nc1nc(NCc2ccccc2)c2ncn(C(C)C)c2n1 [Seliciclib] (100 nM)    82.7
O=C(O)CNC(=O)c1c(O)c2ccccc2n(Cc2ccccc2)c1=O [IOX-2] (50000 nM)    104
CC[C@H](CO)Nc1nc(NCc2ccccc2)c2ncn(C(C)C)c2n1 [Seliciclib] (1000 nM)    107
Cn1cc(C2=C(c3cn(C4CCN(Cc5ccccn5)CC4)c4ccccc34)C(=O)NC2=O)c2ccccc21 [Enzastaurin] (1000 nM)    105
O=[N+]([O-])c1ccc2c(c1)S(=O)(=O)C=C2 [Stattic] (500 nM)    81.2

The molecule listed as COc1ccc(S(=O)(=O)Nc2cccnc2Nc2ccc(O)cc2)cc1 [ABT-751] (100 nM) has a reported normalised response of 69.5

The molecule listed as CCNC(=O)c1noc(-c2cc(C(C)C)c(O)cc2O)c1-c1ccc(CN2CCOCC2)cc1 [NVP-AUY922] (10 nM) has a reported normalised response of 119

The molecule listed as CN[C@@H](C)C(=O)N[C@H]1CN(C(=O)CC(C)C)CC[C@H]2CC[C@@H](C(=O)NC(c3ccccc3)c3ccccc3)N2C1=O [AT-406] (100 nM) has a reported normalised response of 70.4

====

# Tested on: CAL-120
# Experiment notes: normalised viability (% of control), CellTiter-Blue; higher = more viable cells (about 100 = DMSO control)
# Condition: 10000 nM; incubation time: 72 h
Form field: normalised viability (one value per entry).
Expressed in %, but write only the number.

Completed entries (count: 3):
C=CCN(/C=C1/C(=O)O[C@H](COC)[C@@]2(C)C1=C(O)C(=O)C1=C2[C@H](OC(C)=O)C[C@]2(C)C(=O)CC[C@@H]12)CC=C [PX-866]    71.3
CC(C)(C)NC(=O)[C@H]1CC[C@H]2[C@@H]3CC[C@H]4NC(=O)C=C[C@]4(C)[C@H]3CC[C@]12C [Finasteride]    116
Cn1cc(C2=C(c3cn(C4CCN(Cc5ccccn5)CC4)c4ccccc34)C(=O)NC2=O)c2ccccc21 [Enzastaurin]    65.9

Please find the next molecule below.
The molecule listed as CC[C@H](CO)Nc1nc(NCc2ccccc2)c2ncn(C(C)C)c2n1 [Roscovitine] has a reported normalised viability of 76.3
